# Experimental Protocol: small-molecule microarray binders of probe aLefty2, primary screen, biochemical, biotinylated probe, 635/667 nm fluorescence (AID 1094);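 also: score merges spot fluorescence near 667 nm with spot signal-to-noise ratio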
# Experimental Parameters: higher = more signal
If the reported composite z-score equals or exceeds 0.02, assign Satisfied. If not, assign Not satisfied.

>>> label("COc1ccc([Si](C)(C)[C@@H]2[C@@H](CCO)O[C@]3(C(=O)N(Cc4ccc(NC(=O)[C@H](C)O)cc4)c4ccccc43)[C@H]2C)cc1")
"Satisfied"
>>> label("CCOC(=O)[C@H]1C/C=C/C[C@H](C(=O)OCC)C(=O)O[C@H]2[C@@H](OC)O[C@H](CO)[C@@H](OC(=O)Nc3ccc(Br)cc3)[C@@H]2OC1=O")
"Satisfied"
>>> label("C=C(COC)/C(=C/C[C@@H](OC(C)=O)c1cccc(OCCO)c1)c1cc(C(=O)OC)ccc1OC")
"Not satisfied"
>>> label("C[C@H]1NC(=O)[C@@H](C)NC(=O)[C@@]23C(=O)N[C@@H](Cc4ccccc4)C2[C@H](C)[C@@]2(C)O[C@H]2C3/C=C/C/C=C\\CNC1=O (some centres not stated)")
"Not satisfied"
>>> label("[N-]=[N+]=NCc1ccccc1C[C@]1(C(=O)N2CCCCC2)N=C(c2ccc(OCCCO)cc2)O[C@H]1c1ccccc1CN=[N+]=[N-]")
"Not satisfied"
>>> label("C=CCc1cccc([C@@H]2[C@@H](C)CC[C@H]3C(=O)N4[C@H](c5cccc(CC=C)c5)[C@@H](C)CC[C@H]4C(=O)N23)c1")
"Not satisfied"
>>> label("O=C(NCc1ccccc1)[C@@]1(Cc2ccccc2)COC(c2ccc(OCCCO)cc2)=N1")
"Satisfied"
